Value source: the RNAGym collection of RNA variant scans (doi:10.1093/molbev/msab373)

B1: Azoarcus group I ribozyme (parent)
chain: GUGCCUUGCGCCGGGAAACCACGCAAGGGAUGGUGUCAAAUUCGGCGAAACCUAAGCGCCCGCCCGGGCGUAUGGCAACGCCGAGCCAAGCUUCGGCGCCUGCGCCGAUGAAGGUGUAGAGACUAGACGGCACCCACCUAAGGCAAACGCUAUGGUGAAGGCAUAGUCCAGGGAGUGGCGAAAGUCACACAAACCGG

Variants of: B1
Experiment: reverse-splicing fitness (ratio to wild type); higher = more active; in vitro selection; Mg2+ level not given
For each of the variants below, state its reverse-splicing fitness.
Form field (numeric): enter value without unit.

-- ask I would be grateful if you could share the reported reverse-splicing fitness for C82U A111U A120U A145G C169A .
-- reply 0.0029

-- ask Also need C82G A145U C169G , thanks.
-- reply 0.0104

-- ask Also need C82A A111G A145C C150G C169A U176A , thanks.
-- reply 0.00847

-- ask Also need C82G A111U A120G C169G U176A , thanks.
-- reply 0.0187

-- ask Also need C82A A111U A120C A145U C169U U176C , thanks.
-- reply 0.0156

-- ask Also need C82G A111U A120C A145U C150A C169U , thanks.
-- reply 0.00991

-- ask Also need C82A A111U A120G A145G C150A C169A U176C , thanks.
-- reply 0.0248

-- ask Also need A111C A120G A145C C150U C169U U176C , thanks.
-- reply 0.0192

-- ask Also need C82U A111U A145U C150G C169U , thanks.
-- reply 0.00858

-- ask Also need C82U A111C A120U C150U C169A U176A , thanks.
-- reply 0.00486

-- ask Also need C82G A111C A120C C169G U176A , thanks.
-- reply 0.0161

-- ask Also need C82G A111G A120U A145U C150G C169U U176A , thanks.
-- reply 0.00283

-- ask Also need C82U A111G A120U C150G U176G , thanks.
-- reply 0.00216

-- ask Also need C82A A111U A120G A145U C150G C169G U176A , thanks.
-- reply 0.00656

-- ask Also need C82G C150U U176C , thanks.
-- reply 0.206

-- ask Also need C82G A111C A120C A145C C150U C169U U176G , thanks.
-- reply 0.0064

-- ask Also need C82A A120G C169A U176A , thanks.
-- reply 0.0187

-- ask Also need C82A A120U A145C C150U C169G , thanks.
-- reply 0.00276

-- ask Also need C82A A111G A120C C150G C169G U176G , thanks.
-- reply 0.00561

-- ask Also need A111G A145U C150G C169U U176G , thanks.
-- reply 0.00488

-- ask Also need A111G A120U A145C C169A , thanks.
-- reply 0.00532

-- ask Also need C82G A111C A145G C150A C169G , thanks.
-- reply 0.00789

-- ask Also need C82A A111U A120C A145C C150G C169G U176C , thanks.
-- reply 0.00882

-- ask Also need A111C A120C A145U C150G C169A U176G , thanks.
-- reply 0.00619

-- ask Also need C82G A120G A145G U176A , thanks.
-- reply 0.0129

-- ask Also need A111G A145C C150A C169A , thanks.
-- reply 0.00859

-- ask Also need C82G A111C A120C A145G C150U C169U U176G , thanks.
-- reply 0.00732

-- ask Also need A111C A120U C150G U176A , thanks.
-- reply 0.0127

-- ask Also need C82A A111C A120C A145G C150U C169G U176G , thanks.
-- reply 0.00711

-- ask Also need C82G A111C A145G C169A U176G , thanks.
-- reply 0.00852

-- ask Also need A120C A145C C150A C169G , thanks.
-- reply 0.00626

-- ask Also need A120G A145U C150A C169A U176A , thanks.
-- reply 0.0229

-- ask Also need C82G A120C A145G C169A U176A , thanks.
-- reply 0.0209

-- ask Also need C82G A111U A120U C150G C169G , thanks.
-- reply 0.0064

-- ask Also need C82U A111G A120C A145U C150G C169U U176C , thanks.
-- reply 0.0124

-- ask Also need C82A A111C A145U C169U U176G , thanks.
-- reply 0.00718
